I'd appreciate it if you could supply hAMYR3 Potency, no HSA, EC50 [pM] values for the items below.
MEASURED_ON: T1, human amylin-3(a) receptor (human, UniProt P30988 25-474; O60896 24-148)
T1 sequence (looked up) 1: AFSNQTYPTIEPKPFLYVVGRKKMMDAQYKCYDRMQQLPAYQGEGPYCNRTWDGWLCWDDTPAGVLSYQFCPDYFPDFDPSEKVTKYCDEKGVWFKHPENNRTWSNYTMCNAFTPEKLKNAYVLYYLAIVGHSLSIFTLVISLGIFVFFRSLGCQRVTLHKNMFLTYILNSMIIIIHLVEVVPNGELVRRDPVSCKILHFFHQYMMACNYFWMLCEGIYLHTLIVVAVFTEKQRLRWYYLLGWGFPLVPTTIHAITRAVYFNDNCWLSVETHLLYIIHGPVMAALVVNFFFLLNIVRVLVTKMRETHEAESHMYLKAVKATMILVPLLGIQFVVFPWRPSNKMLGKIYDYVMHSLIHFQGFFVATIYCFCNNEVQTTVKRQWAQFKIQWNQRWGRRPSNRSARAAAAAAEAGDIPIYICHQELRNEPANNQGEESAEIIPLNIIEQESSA
T1 sequence (looked up) 2: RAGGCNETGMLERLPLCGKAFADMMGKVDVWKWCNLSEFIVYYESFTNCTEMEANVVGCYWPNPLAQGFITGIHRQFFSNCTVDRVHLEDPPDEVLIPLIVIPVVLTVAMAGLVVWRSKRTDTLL
ASSAY_REMARKS: cell-based or functional assay
Numbered stars: 1 amine (or outer) side, 2 acyl side, 3 side chain; on linkers, the order of the positions; unused ones are H or OH. Square brackets hold non-standard residues; d marks the D form. Side chains are listed from the residue outwards. * marks the point of attachment. C18 diacid = O=C(O)CCCCCCCCCCCCCCCCC(=O)*; γGlu = O=C(O)[C@H](CCC(=O)[*:2])N[*:1]; Chem. 28 = not defined here; AEEA = NCCOCCOCC(=O)O; Aib = CC(C)(N)C(=O)O
Dear colleague, please return just the value in pM, with no unit written.

Sure, the documented hAMYR3 Potency, no HSA, EC50 [pM] for Compound 102 (reading uncertain) peptide: Y[Aib]EGTFTSDYSILLEEQAAREFIEWLLAGGPSSGAGQAPGQAPGASHLSTAQTQRLSAELHQLK(Chem. 28)TLPRTETGSGSP-NH2 is 3.26

Sure, the documented hAMYR3 Potency, no HSA, EC50 [pM] for Compound 65 (peptide) peptide: H[Aib]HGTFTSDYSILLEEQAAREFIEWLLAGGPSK([AEEA-AEEA-γGlu-C18 diacid])GEASQLSTAALGRLSAELHGLATLPRTETGSGSP-NH2 is 2.84
